target: human GLP1-R (SNAP-GLP-1R expressed in HEK293 cells) (human) (UniProt P43220)
Sequence (P43220 24-463): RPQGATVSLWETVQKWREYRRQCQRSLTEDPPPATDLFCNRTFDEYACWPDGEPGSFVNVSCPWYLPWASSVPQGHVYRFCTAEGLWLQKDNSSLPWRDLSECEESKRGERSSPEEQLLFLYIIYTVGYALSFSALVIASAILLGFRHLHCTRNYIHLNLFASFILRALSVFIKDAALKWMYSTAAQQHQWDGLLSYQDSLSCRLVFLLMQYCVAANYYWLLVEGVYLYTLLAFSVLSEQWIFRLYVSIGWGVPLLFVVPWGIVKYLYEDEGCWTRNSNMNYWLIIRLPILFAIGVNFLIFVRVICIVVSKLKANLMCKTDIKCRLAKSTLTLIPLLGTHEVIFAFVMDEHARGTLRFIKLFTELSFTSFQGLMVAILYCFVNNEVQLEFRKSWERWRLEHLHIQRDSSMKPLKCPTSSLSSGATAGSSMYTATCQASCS
method notes: cell-based or functional assay
property name: Internalization % TOP (%)
Entry rule: numbers only, all in %.

Consider the following illustrative entries.
[
  {
    "binder": "YXQGTFTSDFSKXLDKKAQXAFIEYLLAGGPSSGEPPPSGE (synthetic construct; SITE 2: note = 2-Aminoisobutyric Acid; SITE 13: note = alpha-methyl-leucine; SITE 17: note = Lysine is chemically modified through conjugation of the epsilon-amino group of the Lysine side chain with (2-[2-(2-Amino-ethoxy)-ethoxy]-acetyl)-(gamma-Glu)-CO-(CH2) 16-CO2H; SITE 20: n) [Example 23]",
    "data value": 67.2
  },
  {
    "binder": "YXQGTFTSDFSRXLDKKAQXAFIEYLLEXGPSSGAPPPSGS (synthetic construct; SITE 2: note = 2-Aminoisobutyric Acid; SITE 13: note = alpha-methyl-leucine; SITE 17: note = Lysine is chemically modified through conjugation of the epsilon-amino group of the Lysine side chain with (2-[2-(2-Amino-ethoxy)-ethoxy]-acetyl)2-(gamma-Glu)-CO-(CH2 )16-CO2H; SITE 20:) [Example 80]",
    "data value": 48.2
  }
]

Let us examine a further case.
QUERY: For the binder YXQGTFTSDFSKXLDKKAQXAFIEYLLAGGPSSGEPPPSSG (synthetic construct; SITE 2: note = 2-Aminoisobutyric Acid; SITE 13: note = alpha-methyl-leucine; SITE 17: note = Lysine is chemically modified through conjugation of the epsilon-amino group of the Lysine side chain with (2-[2-(2-Amino-ethoxy)-ethoxy]-acetyl)-(gamma-Glu)-CO-(CH2) 18-CO2H; SITE 20: n) [Example 7] , what Internalization % TOP is on record?
RESULT: 76.3
